Target protein (sequence): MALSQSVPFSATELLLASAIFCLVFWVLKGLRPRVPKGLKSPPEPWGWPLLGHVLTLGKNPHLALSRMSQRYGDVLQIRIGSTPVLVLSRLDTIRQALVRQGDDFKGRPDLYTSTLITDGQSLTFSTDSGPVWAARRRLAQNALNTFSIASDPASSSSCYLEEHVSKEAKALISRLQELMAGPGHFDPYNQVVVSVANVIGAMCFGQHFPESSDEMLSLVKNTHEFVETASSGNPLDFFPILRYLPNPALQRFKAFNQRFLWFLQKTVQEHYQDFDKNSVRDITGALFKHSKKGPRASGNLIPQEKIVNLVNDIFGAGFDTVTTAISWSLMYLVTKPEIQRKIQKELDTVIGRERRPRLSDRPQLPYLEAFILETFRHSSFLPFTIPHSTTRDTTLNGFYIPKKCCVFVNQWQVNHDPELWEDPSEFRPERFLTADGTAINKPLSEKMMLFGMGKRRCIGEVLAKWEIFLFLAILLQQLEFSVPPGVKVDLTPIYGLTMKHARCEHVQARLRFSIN
metric name: AC50

What value of measured AC50 is listed for CN(C)CCCNc1c2c(=O)n(C)c(=O)nc-2n(C)c2ccccc12 ?
5.01 µM (inconclusive)

What value of measured AC50 is listed for COc1ccccc1CN1CC[C@@]2(CCCN(S(=O)(=O)c3ccccc3)C2)C1 ?
25.1 µM (inconclusive)

What value of measured AC50 is listed for O=C(O)CCC(=O)c1ccc(-c2ccccc2)cc1 ?
12.6 µM (inconclusive)

###

Biological target: Streptokinase A (Streptococcus pyogenes serotype M1)
Sequence (P10520 whole entry): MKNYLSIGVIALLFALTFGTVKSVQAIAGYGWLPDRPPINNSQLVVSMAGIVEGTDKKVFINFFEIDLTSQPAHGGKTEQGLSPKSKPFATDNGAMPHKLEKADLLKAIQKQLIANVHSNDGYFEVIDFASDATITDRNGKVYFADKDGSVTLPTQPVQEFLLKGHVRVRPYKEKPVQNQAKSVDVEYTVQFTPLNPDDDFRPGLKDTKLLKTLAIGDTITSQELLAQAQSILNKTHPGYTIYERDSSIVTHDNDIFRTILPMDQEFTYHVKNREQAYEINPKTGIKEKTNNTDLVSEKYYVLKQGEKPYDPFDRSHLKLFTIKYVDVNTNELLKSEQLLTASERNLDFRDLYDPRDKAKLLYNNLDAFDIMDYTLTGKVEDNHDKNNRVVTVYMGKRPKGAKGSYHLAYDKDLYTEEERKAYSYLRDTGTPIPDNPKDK
Test: S. pyogenes streptokinase expression inhibitors, potency, dose response, plasminogen activation absorbance, OD405 (AID 1914);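 note: secreted streptokinase activity via plasminogen activation per viability signal from cell pellet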
Format: functional, Streptococcus pyogenes M1 GAS
The source made the active and inactive calls.
metric name: EC50

What value of measured EC50 is listed for CCOC(=O)C1=NN(C(=O)c2ccc(C)cc2)C(O)(c2ccc(Cl)cc2)C1 (stereo not given) ?
> 150 µM (not active)

What value of measured EC50 is listed for Cc1ncc(CO)c(/C=N/NC(=S)Nc2ccc(Cl)c(Cl)c2)c1O ?
> 150 µM (not active)

What value of measured EC50 is listed for CCOC(=O)c1cnn(-c2nc(-c3ccccc3F)cs2)c1C(F)(F)F ?
34.3 µM (active)

What value of measured EC50 is listed for COC(=O)c1cc(-c2cccc(OC)c2)c2c(=O)[nH]c(=O)n(C)c2n1 ?
> 150 µM (not active)

What value of measured EC50 is listed for CCc1ccccc1NC(=O)NNS(=O)(=O)c1cc(C)ccc1C ?
4.21 µM (active)

###

target: Cytochrome P450 3A4 (Homo sapiens, UniProt P08684); conditions: Potency;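 note: confirmatory qHTS run detecting inhibitors and substrates of CYP3A4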
Sequence (P08684 whole entry): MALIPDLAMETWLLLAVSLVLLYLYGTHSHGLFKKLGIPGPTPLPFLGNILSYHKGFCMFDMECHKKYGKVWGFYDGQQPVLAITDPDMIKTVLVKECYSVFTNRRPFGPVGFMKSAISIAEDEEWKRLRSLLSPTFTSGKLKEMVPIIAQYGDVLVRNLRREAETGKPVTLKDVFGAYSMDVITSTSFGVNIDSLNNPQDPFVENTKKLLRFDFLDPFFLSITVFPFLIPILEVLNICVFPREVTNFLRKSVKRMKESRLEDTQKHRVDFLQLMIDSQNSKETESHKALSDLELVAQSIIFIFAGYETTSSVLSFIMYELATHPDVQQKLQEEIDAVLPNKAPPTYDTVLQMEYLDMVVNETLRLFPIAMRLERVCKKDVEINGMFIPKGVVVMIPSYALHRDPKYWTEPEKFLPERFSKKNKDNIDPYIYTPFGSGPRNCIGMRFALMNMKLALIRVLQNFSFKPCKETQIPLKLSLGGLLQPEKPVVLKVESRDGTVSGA
metric name: AC50

Record lookup: for Cytochrome P450 3A4 (Homo sapiens, UniProt P08684), what AC50 belongs to Cc1ccc(N)cc1[N+](=O)[O-] ?
31.6 µM (inconclusive)

Record lookup: for Cytochrome P450 3A4 (Homo sapiens, UniProt P08684), what AC50 belongs to C[C@]12CCC(=O)C[C@@H]1CC[C@@H]1[C@@H]2CC[C@]2(C)[C@@H](O)CC[C@@H]12 ?
15.8 µM (inconclusive)

Record lookup: for Cytochrome P450 3A4 (Homo sapiens, UniProt P08684), what AC50 belongs to O=[N+]([O-])c1ccc2cn[nH]c2c1 ?
12.6 µM (inconclusive)

Record lookup: for Cytochrome P450 3A4 (Homo sapiens, UniProt P08684), what AC50 belongs to Cc1ccc(Cl)cc1N ?
31.6 µM (inconclusive)

Record lookup: for Cytochrome P450 3A4 (Homo sapiens, UniProt P08684), what AC50 belongs to COc1ccc(-c2cc(=O)c3cc(OC)ccc3o2)cc1 ?
3.16 µM (inconclusive)

###

Target: Heat shock factor protein 1 (Mus musculus, UniProt P38532)
Sequence (P38532 whole entry): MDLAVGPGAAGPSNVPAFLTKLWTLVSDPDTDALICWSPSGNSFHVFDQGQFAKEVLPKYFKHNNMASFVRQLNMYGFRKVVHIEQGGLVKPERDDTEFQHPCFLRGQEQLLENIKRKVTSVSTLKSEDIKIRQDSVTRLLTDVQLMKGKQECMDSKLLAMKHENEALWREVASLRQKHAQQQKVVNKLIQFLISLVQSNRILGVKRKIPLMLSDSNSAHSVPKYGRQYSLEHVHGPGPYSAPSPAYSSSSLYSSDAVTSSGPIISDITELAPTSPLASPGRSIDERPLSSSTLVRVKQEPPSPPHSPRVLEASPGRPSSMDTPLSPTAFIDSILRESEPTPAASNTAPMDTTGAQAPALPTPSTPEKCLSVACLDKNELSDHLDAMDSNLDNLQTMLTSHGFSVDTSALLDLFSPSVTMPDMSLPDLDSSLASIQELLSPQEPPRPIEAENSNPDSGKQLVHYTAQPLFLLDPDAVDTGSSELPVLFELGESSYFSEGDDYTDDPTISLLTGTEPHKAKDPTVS
Assay: inhibition of MG132-induced HSE-luciferase signal, confirmation, cell-based, NIH3T3, luminescence, dose retest (AID 2382);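 note: NIH3T3 fibroblasts with HSF1-driven luciferase reporter stressed by proteasome inhibitor MG132; luminescence from HSF1-driven luciferase expression after 8 hours of MG132 stress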
Format: functional
Activity calls are given as the source filed them.
metric name: EC50

What value of measured EC50 is listed for CC(=O)C1C(=O)c2c(cccc2[N+](=O)[O-])/C1=N\c1ccc(S(N)(=O)=O)cc1 (centres undefined) ?
> 195 µM (not active)

What value of measured EC50 is listed for COc1ccc2c(c1)c(CC(=O)Nc1nnc(C3CC3)s1)c(C)n2C(=O)c1ccc(Cl)cc1 ?
21.6 µM (active)

What value of measured EC50 is listed for CC(C)(C)c1ccc(OC(=O)c2cccnc2)cc1 ?
> 195 µM (not active)

What value of measured EC50 is listed for Cc1ccc(C(=O)N/C(=C\c2ccc(-c3ccc(Br)cc3)o2)C(=O)NCCCN(C)C)cc1 ?
24.1 µM (active)

What value of measured EC50 is listed for CC1CCN(S(=O)(=O)c2ccc(C(=O)Nc3nnc(-c4ccccn4)o3)cc2)CC1 ?
45.5 µM (active)

What value of measured EC50 is listed for CN(C)S(=O)(=O)c1ccc(C(=O)OCCCNC2=NS(=O)(=O)c3ccccc32)cc1 ?
26 µM (active)

What value of measured EC50 is listed for Cc1cccc(-c2nnc(NC(=O)c3cccs3)s2)c1 ?
> 195 µM (not active)

What value of measured EC50 is listed for CC(C)c1ccc(NC2(C#N)C(=O)Nc3ccccc32)cc1 (centres undefined) ?
> 195 µM (not active)

What value of measured EC50 is listed for CC1(C)CC(=O)c2cc(OCC(=O)N3CCN(c4ccccc4F)CC3)ccc2O1 ?
> 195 µM (not active)

What value of measured EC50 is listed for CCN(CC)C(=O)COC(=O)c1ccc(C)c(NC(=O)c2ccco2)c1 ?
> 195 µM (not active)

What value of measured EC50 is listed for CCOc1ccc(N2CSC(=S)N(c3ccc(OCC)cc3)C2)cc1 ?
> 195 µM (not active)

What value of measured EC50 is listed for COc1ccc(CN2/C(=N/C(=O)CCC3CCCC3)SC3CS(=O)(=O)CC32)cc1 (centres undefined) ?
> 195 µM (not active)

What value of measured EC50 is listed for O=C(COC(=O)C1=COCCO1)Nc1ccc2c(c1)OCO2 ?
> 195 µM (not active)

What value of measured EC50 is listed for CCc1nc2ccc(C(=O)O)cc2nc1CC ?
6.93 µM (active)

What value of measured EC50 is listed for O=C(O)c1cccc(NC(=S)N/N=C/c2cccnc2)c1 ?
> 195 µM (not active)

What value of measured EC50 is listed for CCCCNc1nc2cccnc2s1 ?
> 195 µM (not active)

What value of measured EC50 is listed for C1CCC(Nc2nnnn2C2CCCCC2)CC1 ?
> 195 µM (not active)

What value of measured EC50 is listed for O=C(COC(=O)c1ccccc1SCC(=O)N1CCCC1)NC1CCS(=O)(=O)C1 (centres undefined) ?
> 195 µM (not active)

What value of measured EC50 is listed for CC1CCCCN1CC(=O)Nc1ccccc1Sc1ccccc1 (centres undefined) ?
> 195 µM (not active)

Origin of measurements: ChEMBL document CHEMBL1201862
